test: NCI Yeast Anticancer Drug Screen. Data for the sgs1 mgt1 strain (AID 161);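 note: 0% = growth of cultures given vehicle only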; conditions: S. cerevisiae sgs1 mgt1 strain, at 50.0 µM, hits give high values
The panel holds about 79,000 compounds, 15% with a hit somewhere; the sample as a whole holds those more often.
Classes by growth inhibition: lowest = under 40%, middle = from 40% up to 80%, highest = 80% and over

Input line: Which band does CCOC(=O)C1N=[N+](c2ccccc2)C(=O)/C1=C\n1c(=S)[nH]c2ccc([N+](=O)[O-])cc21 (stereo unspecified) fall in?
Output line: lowest

Input line: Determine which band this compound sits in: Cc1cc(C)c(NC(=S)NC(=O)c2ccccc2)cc1C
Output line: lowest

Input line: Record CCOC(=O)CC1(C(=O)OCC)c2[nH]c3ccccc3c2CCN1Cc1ccccc1 (stereo unspecified) — which class?
Output line: middle

Input line: Which class does Nc1cc(N)c(N=Nc2cccc3c(S(=O)(=O)O)cccc23)cc1N=Nc1cc([N+](=O)[O-])ccc1O fall in?
Output line: lowest

Input line: Any idea which band CCOC(=O)COc1c(OC)cc(C2C3=C(COC3=O)Oc3cc4c(cc32)OCO4)cc1OC (stereo unspecified) is in?
Output line: lowest

Input line: // bin(item) where item = CC(C)CN(CC(C)C)C(=O)c1ccc(Cl)c(Cl)c1
Output line: highest

Input line: Band for C(=Nc1ccc(-c2cc(-c3ccccc3)nc3ccc4ccccc4c23)cc1)c1ccccc1 ?
Output line: middle

Input line: Into which category would you place COc1cc(C2c3cc4c(cc3OC(OC(C)=O)C2C)OCO4)cc(OC)c1OC (stereo unspecified) ?
Output line: lowest

Input line: For the record Cc1cccc(/C=N/NC(=S)N2CCCC2)n1 , report the class its growth inhibition corresponds to.
Output line: highest

Input line: Which class does CCCCCCC(O)CNCc1ccnc2ccc(OC)cc12 (stereo unspecified) fall in?
Output line: highest

Input line: Pick a category. Item: CCOC(=O)c1[nH]n(-c2ccccc2)c(=O)c1C=NC(=S)C(N)=S
Output line: highest

Input line: Looking at CC1SC2(C(=O)Nc3ccc(Cl)cc32)N(c2ccc(Cl)cc2)C1=O (stereo unspecified) , which class would you pick?
Output line: highest

Input line: Hi there! Could you help me figure out the category for COc1ccc(/C=C/c2sc3ccccc3[n+]2CCCCI)cc1OC please?
Output line: highest

Input line: Hello team, could you let me know which band the following compound falls into: CC(C)(C)[Si](C)(C)OCC1CCC(n2cnc3c(NC(=O)c4ccccc4)ncnc32)O1 (stereo unspecified)
Output line: lowest

Input line: Each compound maps to one class by growth inhibition. Which class for CC(=O)Nc1ccc(/C=C/[N+](=O)[O-])cc1 ?
Output line: middle

Input line: Please classify: C=C(C(=C)n1nnc(C(=O)OC)c1C(=O)OC)n1nnc(C(=O)OC)c1C(=O)OC
Output line: middle

Input line: Which class holds CC(/C=C/c1ccccc1)=N\NC(N)=S ?
Output line: highest

----------
Provide the recorded growth inhibition for the entries that follow.
assay: NCI Yeast Anticancer Drug Screen. Data for the bub3 strain (AID 167); settings: S. cerevisiae bub3 mutant strain, at 33.0 µM, hits give high values
This is part of a sample that, as a whole, favours compounds with a hit. Of some 79,000 tested, about 15% had one in any assay.
Numeric answer only, unit % assumed.

Input line: Give recorded growth inhibition. CS(=O)(=O)SCc1ccc([N+](=O)[O-])cc1
Output line: 99

Input line: Dear colleague, please send me the reported growth inhibition for O=c1c2ccccc2nc(-c2ccccc2)n1O when you can.
Output line: 95

Input line: Assign growth inhibition to the following record: COc1nc2c(c(=O)n1C)N=C(c1ccccc1)[C@H](C(CC(=O)c1ccccc1)c1ccccc1)C(c1ccccc1)N2 (stereo partly specified)
Output line: 18

Input line: Read the entry CC(C)=NOC(=O)Nc1ccc(Cl)cc1 and write its reported growth inhibition.
Output line: 8

Input line: Look up growth inhibition of COc1cc(C2SCC(=O)N2c2ccc(-c3ccc(-n4c(-c5ccccc5)nc5ccccc5c4=O)cc3)cc2)ccc1O (stereo unspecified) and report it.
Output line: 23

Input line: Return value of growth inhibition for input Cc1ccc2c3ccc4c(c3n(C)c2c1)C(=O)C=CC4=O , no commentary.
Output line: 16

Input line: Return growth inhibition (reported value) for this molecule: Cc1ccc(CC2(OCCN(C)C)CCC(C(C)(C)C)CC2)cc1 (stereo unspecified)
Output line: 6

Input line: Complete the entry with growth inhibition for Cc1ccc(NC(=O)/C(CC2N=c3c(ccc4c(O)c5ccccc5c(O)c34)=NC2O)=N/NC(C)(C)C)cc1 (stereo unspecified)
Output line: 1

Input line: Given the molecule CC(C)(C)N=C(NO)c1ccccc1 , write its reported growth inhibition.
Output line: -9

Input line: Complete the entry with growth inhibition for c1ccc2c(OCC3CO3)cccc2c1 (stereo unspecified)
Output line: -12

Input line: Please look at this molecule and report its growth inhibition: O=C1c2ccccc2C(=O)c2cc(CCl)ccc21
Output line: 25

----------
Give measured growth inhibition for each item. Keep answers brief.
test: NCI Yeast Anticancer Drug Screen. Data for the sgs1 strain (AID 173);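 note: 0% = growth of vehicle-only control cultures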; details: S. cerevisiae sgs1 mutant, at 33.0 µM, hits give high values
Compounds without any hit were thinned out: in the full panel of roughly 79,000, 15% have a hit.
Entry rule: numbers only, all in %.

Input line: Please indicate growth inhibition recorded for CC(C)c1ccc(NC(=S)NC(=O)c2ccccc2)cc1
Output line: 50

Input line: Consider the molecule CCOC1=C/C(=N\Nc2ccc([N+](=O)[O-])cc2)CCC1 . State its measured growth inhibition.
Output line: 50

Input line: Give the value of growth inhibition reported for the following: CCOC(=O)c1[nH]cc(C)c1-c1cccn1-c1ccc(Cl)cc1[N+](=O)[O-]
Output line: 49

Input line: Using known records, supply growth inhibition for CN(C)/C=C/c1nnc([N+](=O)[O-])s1
Output line: 24

Input line: Annotate the molecule O=C(O)c1cc2ccc(Cl)cc2c(O)c1C1=CCCCC1 with its measured growth inhibition.
Output line: 65

Input line: Give the value of growth inhibition reported for the following: CN1C(=O)c2ccc3ccccc3c2C1=O
Output line: 25

Input line: Give growth inhibition for the following molecule: O=C(COC(=O)c1ccccc1)c1ccc(Br)cc1
Output line: 99

Input line: Using the record for CNC(=O)OCc1c(COC(=O)NC)c2n(c1C)-c1ccc(OC)cc1CCC2 , state its measured growth inhibition.
Output line: 95

Input line: Supply measured growth inhibition of CC(C)C(C)/C=C\C(C)C1CCC2C3=CC=C4CC(O)CCC4(C)C3CCC21C (stereo unspecified) in your reply.
Output line: -6

Input line: Find the measured growth inhibition of CC(=O)OCC(C)Cc1cc2c(cc1Br)OCO2 (stereo unspecified) and report it.
Output line: 15

Input line: Consider the molecule CC1=CC(=C(c2ccc(N)cc2)c2ccc(N)cc2)C=CC1=N . State its measured growth inhibition.
Output line: 11

----------
assay: NCI Yeast Anticancer Drug Screen. Data for the rad52 strain (AID 147);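 note: 0% = growth of vehicle-treated control cultures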; settings: S. cerevisiae rad52 mutant growth inhibition; at 11.0 µM; hits give high values
Compounds without any hit were thinned out: in the full panel of roughly 79,000, 15% have a hit. Activity calls are given as the source filed them. Cut-off read from the data, not from the text of the source: active = growth inhibition above about 70%; inactive = the rest.
quantity: growth inhibition

Input line: // Input: CCCC(O)C1CC(C(C)C)CCC1C (stereo unspecified) . Output its growth inhibition only.
Output line: 2% (inactive)

Input line: Quickly give me recorded growth inhibition for O=c1c2ccccc2nc(-c2ccccc2)n1O
Output line: 62% (inactive)

Input line: Check the records and state growth inhibition for COc1cc(C2c3cc4c(cc3OC(OC(C)=O)C2C)OCO4)cc(OC)c1OC (stereo unspecified)
Output line: -2% (inactive)

Input line: # return recorded growth inhibition for input Cc1cc(O)c(C(C)C)cc1C1(c2cc(C(C)C)c(O)cc2C)OC(=O)c2ccccc21
Output line: -5% (inactive)

Input line: Supply reported growth inhibition belonging to this compound: COC1=C(OC)C(=O)C(Sc2ccc3ccccc3c2)=CC1=O
Output line: 56% (inactive)

Input line: Return value of growth inhibition for input O=c1nc2n(Cc3ccccc3)c3ccccc3nc-2c(=O)[nH]1 , no commentary.
Output line: 6% (inactive)

----------
Assignment: determine reported growth inhibition for the given compounds.
experiment: NCI Yeast Anticancer Drug Screen. Data for the rad52 strain (AID 147);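 note: 0% = growth of vehicle-treated control cultures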; conditions: S. cerevisiae rad52 mutant growth inhibition; at 11.0 µM; hits give high values
About 79,000 compounds went through this panel and 15% of them were active in at least one assay; those are over-represented in the sample as a whole.
The figure you give is taken to be in %; do not add the unit.

Input line: Supply recorded growth inhibition for OC1(c2ccccc2)CCCc2ccc(Cl)cc21 (stereo unspecified) here.
Output line: 0

Input line: Using the record for Nc1nc2ccc(NCc3ccc(C(=O)NC(CCC(=O)O)C(=O)O)cc3)cc2c(=O)[nH]1 (stereo unspecified) , state its measured growth inhibition.
Output line: -21

Input line: Look up growth inhibition of CC1=CC(=C(c2ccc(N)cc2)c2ccc(N)cc2)C=CC1=N and report it.
Output line: 47

Input line: Give recorded growth inhibition. CN(C)/C=C/c1nnc([N+](=O)[O-])s1
Output line: 5

Input line: Note growth inhibition for the compound shown: O=[N+]([O-])c1cc[n+]([O-])cc1
Output line: 4

Input line: Give the reported growth inhibition for this compound. COc1ccc(N=CN(C)C)c(C)c1
Output line: 0

Reference for the values: PubChem BioAssay (NCI)
